System: HS 578T breast
protocol_description: NCI-60 one-dose screen, 48 h
condition_info: 10 µM unless noted
This is part of a sample that, as a whole, favours compounds with a hit. Of some 83,000 tested, about 20% had one in any assay. Calls of active or inactive are those of the source. How the source made its calls: active means growth percent below 10; inactive means the rest.
Respond only with the outcome that fits, drawn from YES for active, NO for inactive

compound: Nc1c(C(=O)Nc2ccccn2)sc2nc3c(cc12)C(O)CCC3 (stereo unspecified)
assigned_label: YES
--
compound: O[C@@H](c1cc(C(F)(F)F)nc2c(C(F)(F)F)cccc12)[C@H]1CCCCN1
assigned_label: NO
--
compound: CCCCSCC(=O)c1ccccc1
assigned_label: NO
--
compound: N#CC(C#N)N=Nc1ccc(Cl)cc1Cl
assigned_label: NO
--
compound: O=C(/C=C/c1cccc(Cl)c1)c1cccc(OCCCCOc2cccc(C(=O)/C=C/c3cccc(Cl)c3)c2)c1
assigned_label: NO

In: So what was the verdict on `N#C/C(=C\c1ccc(Br)cc1)c1cc2ccccc2[nH]1` in this test?
Out: NO

In: Moving on to `Cn1cc(-c2nonc2-c2c[nH]c3ccccc23)c2ccccc21`
Out: YES

In: Moving on to `C=C1C(=O)O[C@H]2[C@H]1CC/C(COC(=O)NCCCCCCCCNC(=O)OC/C1=C/CC[C@@]3(C)O[C@H]3[C@H]3OC(=O)C(=C)[C@@H]3CC1)=C\CC[C@@]1(C)O[C@@H]21`
Out: NO

In: Moving on to `Fc1ccc(COc2ccc(Nc3ncnc4sc5c(c34)CCCC5)cc2)cc1`
Out: NO

In: Moving on to `CCCNc1nc2ccccc2c2c(=O)c3cccc(Cl)c3sc12`
Out: NO

In: Moving on to `C=CCCC(=O)N1C=CC(=O)[C@H](O)[C@@H]1/C=C/c1ccccc1`
Out: NO

In: Moving on to `O=C(Cn1cc(CN2C(=O)c3ccccc3S2(=O)=O)nn1)Nc1cccc(Cl)c1`
Out: NO

In: Moving on to `O=C(Nc1cccnc1Nc1ccc(Cl)cc1)c1cn(Cc2ccc(F)cc2)nn1`
Out: NO
